- tested-target: shed MICB005 polypeptide (human) (UniProt Q29980)
- test: capture ELISA (anti-hFc / antibody / shed antigen / biotin-6D4)
test-readout: Max OD450
// print number alone

#34 (antibody, V domains shown) VH: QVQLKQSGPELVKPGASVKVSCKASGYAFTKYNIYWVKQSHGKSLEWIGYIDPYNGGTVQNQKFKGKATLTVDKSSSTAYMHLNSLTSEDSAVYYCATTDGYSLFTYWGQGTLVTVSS VL: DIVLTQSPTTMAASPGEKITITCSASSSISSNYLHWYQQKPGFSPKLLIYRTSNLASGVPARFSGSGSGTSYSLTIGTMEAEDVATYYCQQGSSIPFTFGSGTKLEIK: 0.17

Now take the following binder into account.
Data request: Given the entry 13A9 (antibody, human IgG1, kappa, V domains shown) VH: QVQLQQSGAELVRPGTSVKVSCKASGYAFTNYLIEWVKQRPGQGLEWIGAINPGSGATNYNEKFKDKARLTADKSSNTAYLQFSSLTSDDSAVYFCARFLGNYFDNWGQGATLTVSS VL: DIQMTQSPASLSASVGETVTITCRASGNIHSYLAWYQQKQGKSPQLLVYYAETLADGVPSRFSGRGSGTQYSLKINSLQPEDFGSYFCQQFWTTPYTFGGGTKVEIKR , report its measured Max OD450.
Data returned: 2.91
